Source listed as paper PMC3057987.

# Target Under Test: T1, MDM2_(7–300) fused to the TAP tag (human (A549 cell-derived cDNA library), UniProt Q00987 7-300)
# T1 construct: MDM2, residues 7-300, cDNA amplified from an A549 cell-derived cDNA library; primers and plasmid are named MDM(1–294) / pCMV-MDM294-CBPzz; The ELISA methods name only 'in vitro-translated MDM2 (7–300 amino acids)'; also called TAP-tagged MDM2; MDM2 (7–300 amino acids); source: in vitro translated (wheat germ cell-free translation system); immobilised on IgG beads for the pull-down
# T1 sequence (Q00987 7-300): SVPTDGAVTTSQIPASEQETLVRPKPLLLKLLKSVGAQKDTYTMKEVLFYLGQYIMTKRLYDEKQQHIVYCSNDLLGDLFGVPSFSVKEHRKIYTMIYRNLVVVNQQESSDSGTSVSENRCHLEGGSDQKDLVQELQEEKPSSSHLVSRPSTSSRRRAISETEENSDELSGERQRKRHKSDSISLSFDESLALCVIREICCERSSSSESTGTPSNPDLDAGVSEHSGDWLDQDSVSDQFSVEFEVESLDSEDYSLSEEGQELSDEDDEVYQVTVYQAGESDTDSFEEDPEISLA
# Assay Remarks: ELISA; competition: synthetic peptide at various concentrations mixed with in vitro-translated MDM2 (7–300) or MDMX (1–200) in binding buffer (5% skim milk, 10% glycerol), added to His6-p53 immobilized on copper-coated plates, 1 h at room temperature; detection with anti-MDM2 (SMP14) or anti-FLAG M2
# Condition Details: one partner purified
Assay Endpoint: IC50

Enquiry: Reported IC50 for PRFWEYWLRLME (12-mer selected by mRNA display from a partially randomized library; also called X12-1; source: synthetic peptide) [MIP (MDM2 Inhibitory Peptide), synthetic peptide] : what is it?
Return: 10 nM

Enquiry: PRFWEYWLALME (MIP with Arg9 replaced by Ala; source: synthetic peptide) [MIP (R9A), synthetic peptide] , same question.
Return: 20 nM

Enquiry: PRFWEYWLRLAE (MIP with Met11 replaced by Ala; source: synthetic peptide) [MIP (M11A), synthetic peptide] , same question.
Return: 400 nM

Enquiry: PRFWEYWLRAME (MIP with Leu10 replaced by Ala; source: synthetic peptide) [MIP (L10A), synthetic peptide] , same question.
Return: 1140 nM

Enquiry: PRAWEYWLRLME (MIP with Phe3 replaced by Ala; source: synthetic peptide) [MIP (F3A), synthetic peptide] , same question.
Return: 570 nM
